Answer each item with its documented TGI.
Test system: EKVX NSCLC
assay name: NCI tumour cell line growth inhibition, 48 h

Query for EKVX NSCLC: what TGI does the record show for "CC1=NN(c2ccccc2)C(=O)/C1=C1\SC(c2ccccc2)(c2ccccc2)c2ccccc21" ? > 100 µM

TGI of "CC[O-].CC[O-].[O-]c1ccccc1C=NC12CC3CC(CC(C3)C1)C2.[O-]c1ccccc1C=NC12CC3CC(CC(C3)C1)C2.[Ti+4]" on EKVX NSCLC? > 100 µM

Identify the measured TGI of "O=c1c(-c2cccc3ccccc23)c(-c2cccc3ccccc23)c1=O" for EKVX NSCLC. > 39.4 µM

Param readout= TGI; system= EKVX NSCLC; entry= "CCOc1cc(/C=C/C(=O)CC(=O)/C=C/c2ccc(OC(=O)CNc3nc4ccc(OC)cc4s3)c(OCC)c2)ccc1OC(=O)CNc1nc2ccc(OC)cc2s1" ; returns value. 11.7 µM

Record "COP(=O)(OC)[C@@](O)(c1ccccc1)[C@@H](O)[C@H](O)c1ccccc1" : what is its TGI with EKVX NSCLC? > 100 µM

Lookup: TGI / EKVX NSCLC / "NC(=O)N/N=C(\Cc1cc(=O)oc2cc(O)ccc12)C(=O)Nc1ccccc1C(N)=O" > 100 µM

State its TGI on EKVX NSCLC: "O=C1c2ccccc2C(=O)N1C/C=N/NS(=O)(=O)c1cccc([N+](=O)[O-])c1" > 100 µM

Checklist item: TGI tested on EKVX NSCLC, entry O=C1/C(=C/c2cc(O)c(O)c(O)c2)Oc2cc(O)cc(OC3OC(CO)C(O)C(O)C3O)c21 (centres undefined) , value? > 100 µM

What measured TGI is associated with CCN(CC)CC(C(=O)Nc1c(C)cccc1C)/C(C)=N\NC(=S)NN (centres undefined) on EKVX NSCLC? > 100 µM

Please state recorded TGI (tested on EKVX NSCLC) of CC(C)C(Sc1nc(-c2ccccc2)c(-c2ccccc2)[nH]1)C(=O)N/N=C/c1ccc(Cl)cc1 (centres undefined) 67.6 µM

Hi! What's the reported TGI for "C=CC(=O)N1CCN([C@@H](CC2CC2)c2ccc([C@H](C)Nc3ncc4c(n3)N(CC)C(=O)OC4)cc2)CC1" on EKVX NSCLC? 27.6 µM

Record lookup: for EKVX NSCLC, what TGI belongs to "O=C(CSc1nc2ccccc2c(=O)n1-c1ccccc1)N=Nc1c(O)[nH]c2ccc(Br)cc12" ? 9.83 µM

Test system EKVX NSCLC; read-out TGI; what value for "Cc1cc(NC(=O)NCCCOc2ccc(N3C(N)=NC(N)=NC3(C)C)cc2Cl)ccc1S(=O)(=O)F" ? > 100 µM

Field: TGI (EKVX NSCLC). Entry: "COC(=O)[C@H](Cc1ccccc1)NC(=O)N(CCN(CCC#N)C(=O)N[C@H](C(=O)OC)C(C)C)c1ccccc1" > 100 µM

Please tell me: TGI of "C/C(=N/NC(=S)N1CCCCCC1)c1cccc(/C(C)=N\NC(=S)N2CCCCCC2)n1" , system EKVX NSCLC? 7.98 µM

Item COc1ccc(C(O)C(c2ccc(OCc3ccccc3)cc2)c2ccc(OCc3ccccc3)cc2)cc1 (centres undefined) with EKVX NSCLC - TGI? > 100 µM

Form entry - test system: EKVX NSCLC; read-out: TGI; compound: "CCOC(=O)c1ccc(N2C(=O)/C(=C/c3ccc(N(CCC#N)CCC#N)cc3)N=C2c2cc([N+](=O)[O-])ccc2Cl)cc1" > 100 µM

Form field - read-out: TGI; system: EKVX NSCLC; submitted item: CC(C)N1CCOC(c2ccc(O)c(O)c2)C1 (centres undefined) > 100 µM

EKVX NSCLC / TGI / "CN1CCC2(CC1)C(=O)Nc1cc(NC(=O)c3ccc4c(c3)C[C@@H]3C(C)(C)[C@H](O)[C@H](F)C[C@@]3(C)O4)ccc12" : value? > 100 µM

Quick check: TGI on EKVX NSCLC, item "CCCN1CCC(Oc2cc(Nc3nc(Nc4cccc(F)c4C(N)=O)c4cc[nH]c4n3)c(OC)cc2Cl)CC1" ? 7.41 µM

Any idea what TGI came out for "O=[N+]([O-])C(/C(Cl)=C(/Cl)N1CCOCC1)=C1\Nc2ccccc2O1" on EKVX NSCLC? > 100 µM

// map "CCN(CC)P(=O)(c1ccc2c(c1)OCCOCCOCCOCCO2)N(CC)CC" to recorded TGI (system: EKVX NSCLC) > 100 µM

Given the entry CC1OC1C(=O)P(=O)(O)O (centres undefined) , what TGI was observed with EKVX NSCLC? > 100 µM

Please provide the recorded TGI for COc1cc(/C=C2\CC3C4CC=C5C[C@@H](O)CC[C@]5(C)C4CC[C@]3(C)\C2=N\O)cc(OC)c1OC (some centres undefined) , tested on EKVX NSCLC. > 100 µM
